- Test system: Ser. marcescens A-20019
Parameter: MIC. Scope: all listed entries.

>  <MOLECULE>
CC1=C(C(=O)O)N2C(=O)[C@H]([C@H](O)Cc3ccccc3)[C@H]2S1 (relative stereo) [Example 95]

>  <TARGET SYSTEM>
Ser. marcescens A-20019

>  <MIC>
> 125 µg/mL

$$$$
>  <MOLECULE>
CC1=C(C(=O)O)N2C(=O)[C@H]([C@@H]3COC(C)(C)O3)[C@H]2S1 (relative stereo) [Example 103]

>  <TARGET SYSTEM>
Ser. marcescens A-20019

>  <MIC>
> 63 µg/mL

$$$$
>  <MOLECULE>
O=C(O)C1=C(Cc2cscn2)SC2CC(=O)N12 (stereo not shown) [Example 18]

>  <TARGET SYSTEM>
Ser. marcescens A-20019

>  <MIC>
> 125 µg/mL

$$$$
>  <MOLECULE>
CC(=O)OCC1=C(C(=O)[O-])N2C(=O)C[C@H]2S1.[Na+] [Preparation 5]

>  <TARGET SYSTEM>
Ser. marcescens A-20019

>  <MIC>
> 125 µg/mL

$$$$
>  <MOLECULE>
O=C(O)C1=C(COc2ccccc2)S[C@@H]2CC(=O)N12 [Preparation 12, 2-Phenoxymethylpenem-3-carboxylic Acid]

>  <TARGET SYSTEM>
Ser. marcescens A-20019

>  <MIC>
> 125 µg/mL

$$$$
>  <MOLECULE>
CC1=C(C(=O)O)N2C(=O)[C@H]([C@H](C)O)[C@H]2S1 (relative stereo) [Example 59]

>  <TARGET SYSTEM>
Ser. marcescens A-20019

>  <MIC>
> 125 µg/mL

$$$$
>  <MOLECULE>
CC1=C(C(=O)O)N2C(=O)[C@H]([C@H]3COC(C)(C)O3)[C@H]2S1 (relative stereo) [Example 104]

>  <TARGET SYSTEM>
Ser. marcescens A-20019

>  <MIC>
> 63 µg/mL

$$$$
